Test system: RXF 393 renal
assay.notes: NCI tumour cell line growth inhibition, 48 h
For each of the compounds below, state its TGI.

Recorded results for 2 compounds are shown here.
[[record]]
compound = "CCN(CC)CCNC(=O)c1cccc2c1-c1ccccc1C2=O"
tested_on = "RXF 393 renal"
result = "> 100 µM"

[[record]]
compound = "O/N=C(\\CC(O)(C(F)(F)F)C(F)(F)F)c1cccs1"
tested_on = "RXF 393 renal"
result = "> 10 µM"


Okay, here is my list. What is TGI for each of these?
1. CCc1nc(C)cn1C(=O)OCc1nc2nc(Cl)nc(N3CCOCC3)c2[nH]1
2. O=S1(=O)c2ccccc2N(c2ccccc2)c2nnnn21
3. ICC1CCCO1 (configuration not stated)
4. C/C(=C\COP(=O)(O)OP(=O)(O)O)CCCCCCOCc1ccccc1
5. O[C@@]1(C#Cc2ccc3c(c2)OCO3)CCC[C@H]1NCc1ccccc1
6. CN(C)NC1=C([N+](=O)[O-])C=NN(c2ccccc2)C1
7. CC(=O)Nc1cc(Cl)cc(Cl)c1O
8. Cc1ccc(Nc2cccc3c2C(=O)c2cccc(Nc4ccc(C)cc4S(=O)(=O)O)c2C3=O)c(S(=O)(=O)O)c1

1: 2.01 µM; 2: 49.5 µM; 3: > 100 µM; 4: > 100 µM; 5: 86.2 µM; 6: 3.46 µM; 7: > 100 µM; 8: > 100 µM

I have 2 compounds here; please give me TGI for each one.
1. Nc1cccc2c1-c1c(cccc1[N+](=O)[O-])C2=O
2. Cc1ccc2c(c1)-c1c3c(nn1C)-c1ccccc1SC3O2 (configuration not stated)

["> 100 µM", "> 100 µM"]

---

System: SK-MEL-28 melanoma
assay.notes: NCI tumour cell line growth inhibition, 48 h
measurement.label: TGI

Here's what some known entries look like.
[[record]]
compound = "Cc1nc2nc(C)n(CCN3CCOCC3)c(=O)c2c(-c2cccc([N+](=O)[O-])c2)c1C(=O)CCCCCCCCCCN1CCC(c2ccccc2)(c2ccccc2)CC1"
result = "4.34 µg/mL"

[[record]]
compound = "COC(=O)[C@H](Cc1cn(C)cn1)NC(=O)[C@H](CC(=O)OCc1ccccc1)NC(=O)Nc1cc(C(F)(F)F)cc(C(F)(F)F)c1"
result = "21.6 µM"

[[record]]
compound = "N=c1oc2ccccc2cc1C(=O)Nc1cccc2ccccc12"
result = "> 100 µM"

[[record]]
compound = "O=C(O)c1ccc2c(c1)C(=O)N(c1ccc(S(=O)(=O)c3ccc(N4C(=O)c5ccc(C(=O)O)cc5C4=O)cc3)cc1)C2=O"
result = "> 100 µM"


Go through the list and state TGI for each entry.
1. O=C1Nc2ccc(Br)cc2/C1=N/S(=O)(=O)O
2. COC(=O)C1=CC2C(=O)OC1C1C(=O)NC(=O)C21 (stereo not given)
3. O=C1/C(=C\c2ccc(F)cc2)CN(C(=O)c2ccccc2F)C/C1=C\c1ccc(F)cc1
4. C#C[C@@]1(O)[C@@H](CO)O[C@@H](n2cc(Br)c3c(Cl)ccnc32)[C@@H]1O
5. COc1ccc(Cn2cc(COc3cc(/C=C/C(=O)c4cc(OC)c(OC)c(OC)c4)ccc3OC)nn2)cc1

["> 100 µM", "> 100 µM", "3.36 µM", "> 100 µM", "> 100 µM"]

---

System: LOX IMVI melanoma
assay.notes: NCI tumour cell line growth inhibition, 48 h
Can you tell me TGI for the items I'm about to list?

[[record]]
molecule = "CC[C@@H](C)/C=C(C)/C=C/C(=O)c1c(O)c(-c2ccc(OC(=O)[C@@]34CC[C@@](C)(C(=O)O3)C4(C)C)cc2)cn(O)c1=O"
tested_on = "LOX IMVI melanoma"
result = "> 50 µM"

[[record]]
molecule = "CC(=O)OCC1OC(n2cccnc2=O)C(OC(C)=O)C1OC(C)=O (stereo not drawn)"
tested_on = "LOX IMVI melanoma"
result = "> 100 µM"

[[record]]
molecule = "CC(C)(C)[Si](C)(C)OCC1OC(n2cnc3c(=O)[nH]cnc32)CC1O (stereo not drawn)"
tested_on = "LOX IMVI melanoma"
result = "> 100 µM"

[[record]]
molecule = "O=C(O)c1ccc2c(c1)C(=O)N(c1ccc(S(=O)(=O)c3ccc(N4C(=O)c5ccc(C(=O)O)cc5C4=O)cc3)cc1)C2=O"
tested_on = "LOX IMVI melanoma"
result = "> 100 µM"

[[record]]
molecule = "Cc1ccc(Sc2ccccc2C23OC(C)(C4C(=O)N(c5ccccc5)C(=O)C42)N(C)C3=O)cc1 (stereo not drawn)"
tested_on = "LOX IMVI melanoma"
result = "> 100 µM"

[[record]]
molecule = "Clc1sc(Cl)c2c1[C@H](Cl)C[C@@H]2Cl"
tested_on = "LOX IMVI melanoma"
result = "25.2 µM"

[[record]]
molecule = "O/N=C(\\CC(O)(C(F)(F)F)C(F)(F)F)c1cccs1"
tested_on = "LOX IMVI melanoma"
result = "> 10 µM"

[[record]]
molecule = "CC[C@H](C)[C@@H]([C@@H](CC(=O)N1CCC[C@H]1[C@H](OC)[C@@H](C)C(=O)NCCc1ccccc1)OC)N(C)C(=O)C(NC(=O)[C@H](C(C)C)N(C)C)C(C)C (stereo partly drawn)"
tested_on = "LOX IMVI melanoma"
result = "> 10 µM"


I need TGI for every entry listed below, if you could help.
1. [N-]=[N+]=NC1C(O)C(CO)OC1n1ccc(N)nc1=O (stereo not drawn)
2. O=C1c2ccccc2C(=O)N1CCCOCc1c[nH]c(=O)[nH]c1=O
3. CN(C)c1ccc(C=Nc2ccc(-c3nc4ccccc4s3)cc2)cc1
4. O=S(=O)(NC1=NCCN1C(=S)SN1CCn2c1nsc2=S)c1ccc(Oc2ccccc2)cc1
5. CC(=O)[O-].CC(=O)[O-].O=C(N/N=C/c1cc(Cl)cc(Cl)c1[OH2+])c1ccncc1.[Mn+2]
6. C/C=C/c1cc2c(cc1O)CC[C@@H]1[C@@H]2CC[C@]2(C)[C@@H](O)CC[C@@H]12
7. Nc1ccccc1C#C/C=C\C#Cc1ccccc1C#CCO
8. CC1=NN(c2ccc(S(=O)(=O)O)cc2)C2(C1)C(Cl)C(=O)N2c1nc2ccccc2s1 (stereo not drawn)

1. > 625 µM
2. > 100 µM
3. 94.8 µM
4. > 100 µM
5. 15.2 µM
6. 24.3 µM
7. 8.97 µM
8. > 100 µM

Would you be so kind as to report TGI for each listed record?
1. CC(=O)[CH-]C(=O)c1ccccc1.CC(=O)[CH-]C(=O)c1ccccc1.Cl.[O-]c1ccnc2ccccc12.[O-]c1ccnc2ccccc12.[Ti+4]
2. Oc1ccc2c(=S)cc(-c3ccc(Br)cc3)oc2c1O
3. CN(C)NC(=O)/C(=C/c1ccc(Cl)cc1)NC(=O)c1ccccc1
4. COC(=O)[C@H](Cc1cn(C)cn1)NC(=O)[C@H](CC(=O)OCc1ccccc1)NC(=O)Nc1cc(C(F)(F)F)cc(C(F)(F)F)c1
5. COC(=O)c1cc(CC2Cc3cc4c(cc3C2=O)CCC4)cc2c1CCC2 (stereo not drawn)

1: > 100 µM; 2: 3.87 µM; 3: > 100 µM; 4: 8.9 µM; 5: > 100 µM

// for each molecule in input: emit TGI
1. COc1cccc(NC(=O)CSc2nnc(Cc3ccccc3)o2)c1
2. CCc1n[nH]c(=O)n1CC
3. CC1(C)c2ccccc2N2C(c3ccccc3)=NOC21C (stereo not drawn)

1: > 100 µM; 2: > 100 µM; 3: > 100 µM

The following molecules each have a reported value; give each one's TGI.
1. CC1OC(n2cc(C(F)(F)F)c(=O)[nH]c2=O)C=CC1=O (stereo not drawn)
2. COC(=O)C1C(C(=O)O)C2(c3ccccc3)C(=O)C1(c1ccccc1)C(c1ccccc1)=C2c1ccccc1 (stereo not drawn)

1. 33 µM
2. 89.7 µM

Required: TGI, one value per molecule below.
1. C/C=C(\N=C=S)C(=O)OC1C(COC(C)=O)OC([C@]2(O)CC(=O)C(=N)C(C(=O)O)=C2O)C(O)C1OC1CC(OC)C(O)([C@@H](C)OC(=O)[C@@H](C)CC)C(C)O1 (stereo partly drawn)
2. O=c1[nH]c(=O)c2c([nH]1)[nH]c1ccc(Br)cc12
3. CC(C)(C)OC(=O)N(O)[C@@H]1CC[C@H](n2cnc3c(N)ncnc32)C1
4. CCOC(=O)C1=C(OC(OCC)C([Se]c2ccccc2)C(C)C)CCC1 (stereo not drawn)
5. O=C1/C(=C\c2ccc(F)cc2)CN(C(=O)c2ccccc2F)C/C1=C\c1ccc(F)cc1
6. CN(c1ccccc1)c1cc2ccccc2nn1
7. CC(Br)CN1CCOCC1 (stereo not drawn)
8. O=C(/C=C/c1ccccc1)c1cccc2ccccc12

1: 17.2 µM; 2: > 100 µM; 3: > 100 µM; 4: 6.93 µM; 5: 0.957 µM; 6: > 100 µM; 7: > 100 µM; 8: 4.69 µM

Can you give me TGI for all of these, one by one?
1. O=C(OCc1ccccc1)C(Cc1ccc(OCc2ccccc2)cn1)NC(=O)C(F)(F)F (stereo not drawn)
2. S=C1NC2=C(CSC/C2=C\c2ccc(Cl)cc2)C(c2ccc(Cl)cc2)N1 (stereo not drawn)
3. CSC1=NN(C(C)=O)C(C(OC(C)=O)C(OC(C)=O)C(OC(C)=O)C(COC(C)=O)OC(C)=O)S1 (stereo not drawn)
4. CC(C)c1oc(=O)cc2c1C(O)C1OC(=O)C3(C)C(O)C4OC4C2(C)C13 (stereo not drawn)

1. > 100 µM
2. > 100 µM
3. > 100 µM
4. 5.77 µM
